Reference source: the supplement of paper PMC12764529

Please go through the items and note down their folding stability dG unfold.
- assay info: folding stability dG unfold from trypsin proteolysis; higher = more stable
The reply should contain only the number, in kcal/mol.

Record SAGGSAGGSAGSEIAEAIKKALEEAGVKEVKIEKVGPEPNVFRITFENGETIEITLPEDLSAGGSAGGSAGG [r11_765_TrROS_Hall] . Reported folding stability dG unfold: 2.28

Lab note: measured folding stability dG unfold of SAGGATFAPGQTITVTVTVTLADGSTVTVTATVRIEVRAAPAPPVTVTNADGSTRTFTSAEEARAAASAGGS [r16_580_TrROS_Hall] was 1.46

Value of folding stability dG unfold reported for the sequence SAGGENYTFEMEITIPIPLPNPNGKLKKLPIKVPIEYEYDDPAQRNQAMQNMIMRIIDLALKELGVPSAGGS [r16_339_TrROS] is 1.46

The sequence listed as SAGGSAGGSAMKVRVKIKITRGSKEYEEEFILPEEEIEKLKEEIPEDYEVEIVDKEPLVLKSAGGSAGGSAG [r3_195_JUSTAS] shows folding stability dG unfold equal to 0.129

folding stability dG unfold reading for ETIYLSSSNPEEVIKALKEAASKGKTVVVEANPEFFKEFIAQGFKVEKILKIEPIPGGDGYRAEIKISPGGS [r1_173_TrMRF] : 1.64

folding stability dG unfold in this record for SAGFKIKIEPDKNMPPGQKPMTEEELKKIAKSIAKQMEQDPGNPGKEVKIEIPFYFPDGYWYRIEIEKSAGG [r19_132_TrROS] : 0.259

Field folding stability dG unfold (entry SAGGMPEVKIKVEITEIKVDKETGKTVTIRIKSVEITTADGRKYRVEKEIRIRPDGSIEVKVKVEELPSAGG [r13_917_TrROS_Hall] ) reads 2.75

---

Give measured folding stability dG unfold for each item. Keep answers brief.
- assay info: folding stability dG unfold from trypsin proteolysis; higher = more stable
Please respond with the number in kcal/mol and leave the unit unwritten.

Reported folding stability dG unfold ( SAGGSAGGSAGGTITLPNGAKVTRIEFLPDGTLRVEAVVETDGGPVTVEITLPVYPSLATSAGGSAGGSAGG [r7_37_TrMRF] ) = 2.19

// folding stability dG unfold value for SAGGSAGGSAMTLNVPDAGGKTYTVEVLSYDPVKNTWTLLNPSTSETITITAEEAAKIKAAASAGGSAGGSA [r18_161_JUSTAS] : 2.01

Consider SAGGSAKLTAEEIKKLPPNARIYFDKETGRVFIEVDGKLVVIEIDKETKEVKVVKVFPSKEALEKASAGGSA [r15_6_TrROS_Hall] . Its measured folding stability dG unfold is 1.57

The reported folding stability dG unfold of the sequence SAGGSAGGSAGGMKITLTVPSEEEIEALTPPDAKITEIKKIGKDPVKGLPYYEVVLDPSSAGGSAGGSAGGS [r10_256_JUSTAS] was -1.42

Per the record, SAGGSAGGSKPEIRKIKIYTKEGGKKIIPVNGTVIEIDGKKYKVKPNDKIKVPKNVKKIEPEGSAGGSAGGS [r12_779_TrMRF] has folding stability dG unfold of -0.395

Form field folding stability dG unfold, entry SAGGSAGGRIPLEDIEIVEVSEETLPNTEKVYHVLVKLPEGYIEATFLPNTGLEEAVERLLALESAGGSAGG [r6_232_TrMRF] : 0.963

Entry SAGGSAKTKTITLKIKIVDPKTNKVYEFEIKIEVELTLDKNGKLTAKIKKIEIKAPKNSPLLKKLLSAGGSA [r15_258_TrROS_Hall] ; folding stability dG unfold = 2.57

Summary for this sequence, SMSVSTSTEKLPTDLYITEKEIKIEPVDPTKNVYRVTVKTTIVDKNGNVVKEEEKEEIIPLSELEKRIKSSA [r9_234_JUSTAS] : folding stability dG unfold is 1.2

Looking up SAGGSMALVEIERPGGEGALRTVDTSNPAAVKAFVDAVPEDEPVRVYTDDPAVVELFKEAGFDEVLLESAGG [r13_476_JUSTAS] , I see its folding stability dG unfold listed as -0.0819

Record summary for SAGGSAGGSAGVVVKKPGTDVVYEITEEPGSYKVTITDPKTGTTKEFTVSPEVSIESLLLSAGGSAGGSAGG [r11_772_JUSTAS] : reported folding stability dG unfold = 1.22

For SAGGKKIKAKVIEIKKIGDKVLVTIERPDGSPDEVLIDKKEVAEKITPESEVEIEVFPDGSVKIKVGSAGGS [r16_2_TrMRF] the sequence record lists folding stability dG unfold as 1.96

folding stability dG unfold in this record for SAGGMILEIEFPPELIEELLEKLKKEFPDVEVKPLKIEYDPETGLVKVPILVKTKNPEEVEKIKKLAASAGG [r13_539_TrMRF] : 2.91

folding stability dG unfold reading for SAGGIEELAKALGIEEVEVTSIDPETREVTVRVRVRGPDGEERTLTVKIRLEPAPPPVRTFSEEELKSSAGG [r13_608_TrROS_Hall] : 1.78

The sequence listed as SAGGSAVILIPIPPDDPNFWEMIKDFQEEGKPVIIRNPEGEWMVFKPNGPVKPVDSPEQLLEAGITSAGGSA [r15_94_TrROS] shows folding stability dG unfold equal to 1.03
